Source listed as patent US20140235701.

# assayedSystem: NGF (nerve growth factor) (Homo sapiens, UniProt P01138 P01138:122-241)
# Sequence (P01138 122-241, one chain of several): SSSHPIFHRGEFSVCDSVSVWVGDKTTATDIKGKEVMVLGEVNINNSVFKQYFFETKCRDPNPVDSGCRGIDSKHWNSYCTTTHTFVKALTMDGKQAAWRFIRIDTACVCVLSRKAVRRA
# experimentNotes: cell_activity; TF-1 cell proliferation inhibition
# experimentalParameters: tags: R&D Systems; chain copies: 2
pIC50: −log10 of the molar value.
measurementKind: pIC50

1) GGGUCCUGGAUAAGAGUUUCCGUCUCGUAUCCUGUUACCC (ssRNA, 2'-F C and U except U4; 2'-OMe G1-3,U4,G9,G14,G16,G22,G27; 2'-OH G8,G34; 2'-H A; idT 5' and 3') [SEQ ID NO: 82(2)]
10.39
2) GGGUCCUGGAUAAGAGTUUCCGUCUCGUAUCCTGUUACCC (ssRNA, 2'-F C5,U7,U18,U19,C20,C24,U25,U36; dT17,dT33; 2'-OH G8,G34; 2'-H A; 2'-OMe all other; idT 5' and 3') [SEQ ID NO: 162]
10.85
3) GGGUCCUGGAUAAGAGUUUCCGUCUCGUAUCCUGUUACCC (ssRNA, 2'-F C and U except C38; 2'-OMe G1-3,G9,G14,G16,G22,G27,C38; 2'-OH G8,G34; 2'-H A; idT 5' and 3') [SEQ ID NO: 82(16)]
10.59
4) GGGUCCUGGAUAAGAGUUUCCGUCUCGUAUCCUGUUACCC (ssRNA, 2'-F C5,U7,U17,U18,U19,C20,C24,U25,U33,U36; 2'-OH G8,G34; 2'-H A; 2'-OMe all other; 5' PEG80TS4; 3' idT) [SEQ ID NO: 82(55)]
10.41
5) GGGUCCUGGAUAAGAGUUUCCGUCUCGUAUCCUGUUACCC (ssRNA, 2'-F C5,U7,U17,U18,U19,C20,C24,U25,U33,U36; 2'-OH G8,G34; 2'-H A; 2'-OMe all other; idT 5' and 3') [SEQ ID NO: 82(25)]
10.07
